test system: Staphylococcus aureus; assay: Potency index, ratio of MIC for norfloxacin to MIC for compound against quinolone-resistant Staphylococcus aureus CCARM 3519 incubated for 24 hrs serial dilution method; format: functional
quantity-measured: Ratio

Solved cases (3 shown):
Cc1nn(-c2ccccc2)c(Oc2ccc(Br)cc2)c1/C=C1\SC(=S)N([C@@H](Cc2c[nH]c3ccccc23)C(=O)O)C1=O = 4
Cc1nn(-c2ccccc2)c(Oc2ccc3ccccc3c2)c1/C=C1\SC(=S)N([C@@H](Cc2ccccc2)C(=O)O)C1=O = 4
COc1ccccc1Oc1c(/C=C2\SC(=S)N([C@@H](Cc3ccccc3)C(=O)O)C2=O)c(C)nn1-c1ccccc1 = 4

Look at this molecule and give its reported Ratio. Cc1nn(-c2ccccc2)c(Oc2ccccc2Cl)c1/C=C1\SC(=S)N([C@@H](Cc2ccccc2)C(=O)O)C1=O
4

###

system: Staphylococcus aureus; assay: Potency index, ratio of MIC for oxacillin to MIC for compound against quinolone-resistant Staphylococcus aureus CCARM 3505 incubated for 24 hrs serial dilution method; format: functional
quantity-measured: Ratio
Lab note: jot down the number only; don't add units.

These solved cases illustrate the format of a correct answer.
Cc1nn(-c2ccccc2)c(Oc2ccc(Br)cc2)c1/C=C1\SC(=S)N([C@@H](Cc2c[nH]c3ccccc23)C(=O)O)C1=O = 64
Cc1ccc(Oc2c(/C=C3\SC(=S)N([C@@H](Cc4c[nH]c5ccccc45)C(=O)O)C3=O)c(C)nn2-c2ccccc2)c(C)c1 = 64
Cc1nn(-c2ccccc2)c(Oc2ccc(Cl)cc2Cl)c1/C=C1\SC(=S)N([C@@H](Cc2ccccc2)C(=O)O)C1=O = 32

Consider the additional compound presented here.
Using the record for Cc1nn(-c2ccccc2)c(Oc2ccc(Cl)cc2Cl)c1/C=C1\SC(=S)N([C@@H](Cc2c[nH]c3ccccc23)C(=O)O)C1=O , report its Ratio.
64

###

tested on: Staphylococcus aureus; experiment: Antibacterial activity against Staphylococcus aureus KCTC 503 at 64 ug/ml incubated for 24 hrs serial dilution method; assay type: functional, organism-based
Active and inactive are the calls of the source. No cut-off for these calls is given here.
quantity-measured: Activity

Example cases with answers are listed next.
Cc1nn(-c2ccccc2)c(Oc2ccc(F)cc2)c1C=O = inactive
Cc1nn(-c2ccccc2)c(Oc2ccc(Cl)cc2Cl)c1C=O = inactive
Cc1cccc(Oc2c(C=O)c(C)nn2-c2ccccc2)c1 = inactive
COc1ccccc1Oc1c(C=O)c(C)nn1-c1ccccc1 = inactive

Consider the compound COc1ccc(Oc2c(C=O)c(C)nn2-c2ccccc2)cc1 and give its measured Activity.
inactive

Find the recorded Activity belonging to Cc1nn(-c2ccccc2)c(Oc2ccc3ccccc3c2)c1C=O and report it.
inactive

src = ChEMBL document CHEMBL2203015
